Catalogue of binders with associated rat MASP2 IC50
# measurement-target: recombinant rat MASP2 active protease (amino acids 296-685, C-terminal His Tag) (rat, UniProt Q9JJS8 296-685)
# Sequence (Q9JJS8 other isoform, or with tags, fused parts or gaps limits assumed): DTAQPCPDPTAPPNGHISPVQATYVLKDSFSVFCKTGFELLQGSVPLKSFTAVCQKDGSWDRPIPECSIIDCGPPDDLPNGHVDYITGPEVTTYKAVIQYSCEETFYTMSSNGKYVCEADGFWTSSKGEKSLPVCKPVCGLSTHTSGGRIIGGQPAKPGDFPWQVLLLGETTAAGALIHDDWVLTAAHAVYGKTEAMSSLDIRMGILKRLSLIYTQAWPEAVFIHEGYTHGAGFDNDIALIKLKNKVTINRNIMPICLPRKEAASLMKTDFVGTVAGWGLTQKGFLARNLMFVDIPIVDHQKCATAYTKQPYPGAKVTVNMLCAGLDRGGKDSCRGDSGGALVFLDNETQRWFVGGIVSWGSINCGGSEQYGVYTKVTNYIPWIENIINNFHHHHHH
# assay-method-text: cell-based or functional assay
Bridge positions count the residues as written; N and C are the ends. Square brackets hold non-standard residues; d marks the D form. Ends that are not written are not given here. Pro(4-spirocPr) = O=C(O)[C@@H]1CC2(CC2)CN1; Oic = O=C(O)[C@@H]1C[C@@H]2CCCC[C@@H]2N1; tBuAla = CC(C)(C)C[C@H](N)C(=O)O; Pen = CC(C)(S)[C@H](N)C(=O)O; PEG3 = NCCOCCOCCOCCC(=O)O; Sar = CNCC(=O)O
measured-attribute: rat MASP2 IC50 (nM)

[Sar]ICSRS[tBuAla]P[Pro(4-spirocPr)]I[Pen]IP-NH2 (disulfide 3-11; N-terminus assumed; SMILES CC[C@H](C)[C@H](NC(=O)CNC)C(=O)N[C@H]1CSSC(C)(C)[C@@H](C(=O)N[C@H](C(=O)N2CCC[C@H]2C(N)=O)[C@@H](C)CC)NC(=O)[C@H]([C@@H](C)CC)NC(=O)[C@@H]2CC3(CC3)CN2C(=O)[C@@H]2CCCN2C(=O)[C@H](CC(C)(C)C)NC(=O)[C@H](CO)NC(=O)[C@H](CCCNC(=N)N)NC(=O)[C@H](CO)NC1=O) ... 9.4
[Sar]ICSRSLP[Oic]I[Pen]IP[PEG3]-OH (disulfide 3-11; N-terminus assumed; SMILES CC[C@H](C)[C@H](NC(=O)CNC)C(=O)N[C@H]1CSSC(C)(C)[C@@H](C(=O)N[C@H](C(=O)N2CCC[C@H]2C(=O)NCCOCCOCCOCCC(=O)O)[C@@H](C)CC)NC(=O)[C@H]([C@@H](C)CC)NC(=O)[C@@H]2C[C@@H]3CCCC[C@@H]3N2C(=O)[C@@H]2CCCN2C(=O)[C@H](CC(C)C)NC(=O)[C@H](CO)NC(=O)[C@H](CCCNC(=N)N)NC(=O)[C@H](CO)NC1=O) [Example 468: ((N-Me)G)-IC+SRSLP-(Oic)-I-(Pen)+IP-(PEG2(13 atoms))-OH] ... 80
